target: Curvularia sp. 4388 (NMI Accession No. V22/011149) VHPO, culture supernatant; conditions: read-out: KI (Br-); MCD assay, pH 5.5, substrate inhibition model
Observable: Ki (µM)
Report as a plain number; the unit µM is understood.

For the molecule shown here, [Br-].[K+] [Br-, bromide] , give the reported Ki.
1340

###

target: Curvularia spicifera US-188 (ATCC PTA-127510) VHPO, purified, SEQ ID NO: 3; conditions: read-out: KI (H2O2); MCD assay, pH 6.5, substrate inhibition model
Observable: Ki (mM)
Report as a plain number; the unit mM is understood.

For the compound shown here, OO [H2O2, hydrogen peroxide] , give the reported Ki.
2.76

The reported numbers originate from patent US20260232745A1.
